Please provide measured fold change (FC) for the entries that follow.
molecular target: CAAX prenyl protease 1 homolog (Homo sapiens) (UniProt O75844); assay: Inhibition of ZMPSTE24 in human U2OS cells assessed as increase in intracellular accumulation of prelamin A at 10 uM after 24 hrs by Western blot analysis relative to control; type: cell-based
Sequence (O75844 whole entry): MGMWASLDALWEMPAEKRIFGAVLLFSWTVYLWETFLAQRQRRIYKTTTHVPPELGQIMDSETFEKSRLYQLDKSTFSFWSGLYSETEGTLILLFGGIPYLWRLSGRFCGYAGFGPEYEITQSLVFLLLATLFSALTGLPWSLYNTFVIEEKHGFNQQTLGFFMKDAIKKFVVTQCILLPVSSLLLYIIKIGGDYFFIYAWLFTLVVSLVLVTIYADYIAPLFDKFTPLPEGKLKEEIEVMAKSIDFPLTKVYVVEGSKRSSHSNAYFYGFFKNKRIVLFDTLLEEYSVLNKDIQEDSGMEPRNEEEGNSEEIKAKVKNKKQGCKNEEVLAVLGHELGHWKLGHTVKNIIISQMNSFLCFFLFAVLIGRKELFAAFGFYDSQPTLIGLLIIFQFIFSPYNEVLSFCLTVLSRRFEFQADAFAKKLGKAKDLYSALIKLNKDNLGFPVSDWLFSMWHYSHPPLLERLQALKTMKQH
Give your answer as a number; write no unit.

Sample Cc1cccc(C)c1OCC(=O)N[C@@H](Cc1ccccc1)[C@@H](O)C[C@H](Cc1ccccc1)NC(=O)[C@@H](NC(=O)Cc1ccc(Cl)cc1)C(C)C ; fold change (FC) observed: 2.8

Sample Cc1cccc(C)c1OCC(=O)N[C@@H](Cc1ccccc1)[C@@H](O)C[C@H](Cc1ccccc1)NC(=O)[C@@H](NC(=O)C1CCC(=O)N1)C(C)C (stereo partly specified) ; fold change (FC) observed: 3.2

Sample COc1cc(Cl)cc(C(=O)N[C@H](C(=O)N[C@@H](Cc2ccccc2)C[C@H](O)[C@H](Cc2ccccc2)NC(=O)COc2c(C)cccc2C)C(C)C)c1 ; fold change (FC) observed: 2.7

Sample Cc1cccc(C)c1OCC(=O)N[C@@H](Cc1ccccc1)[C@@H](O)C[C@H](Cc1ccccc1)NC(=O)[C@@H](NC(=O)c1ccc2[nH]nnc2c1)C(C)C ; fold change (FC) observed: 1.5

Sample Cc1cc(C)cc(C(=O)N[C@H](C(=O)N[C@@H](Cc2ccccc2)C[C@H](O)[C@H](Cc2ccccc2)NC(=O)COc2c(C)cccc2C)C(C)C)c1 ; fold change (FC) observed: 3.4

Sample Cc1cccc(C)c1OCC(=O)N[C@@H](Cc1ccccc1)[C@@H](O)C[C@H](Cc1ccccc1)NC(=O)[C@@H](NC(=O)Cc1cccnc1)C(C)C ; fold change (FC) observed: 1.7
